ASSAYED TARGET: E3 ubiquitin-protein ligase SIAH1 (Homo sapiens)
ASSAY REMARKS: inhibitors of Siah-1 ligand interaction – biochemical, TR-FRET, dose response (AID 2141)
ASSAY CONDITIONS: TR-FRET biochemical assay, Siah-1 binding
The source made the active and inactive calls. How the calls were made is not given here.
Lab note: assign the record to one of Y = active, N = inactive

Field: example entries. Status: answers known.
Answer briefly: the call reported for `CC1=C(C#N)c2nc(N)c(C#N)c(C)c2/C1=C\c1ccc(-c2ccccc2C(=O)O)o1` in this assay.
N

Assay result, entry `COc1ccc(CCNC(=O)c2ccc(S(=O)(=O)N(C)c3ccccc3)cc2)cc1OC` — outcome?
N

Others:
Assay outcome for `O=c1[nH]c2ccc(S(=O)(=O)N3CCCCC3)cc2s1` : what was it?
N

Which outcome did this test record for the compound `COCCCNc1c2c3c(cccc3[nH]c1=O)C(=O)c1ccccc1-2` ?
N

Could you kindly confirm the outcome this assay logged for `CC1CCN(S(=O)(=O)c2nnc(NC(=O)c3cccc(Cl)c3)s2)CC1` ?
N

Short answer needed: outcome of this test for `CCCCn1c(NS(=O)(=O)c2ccccc2)c(S(=O)(=O)c2ccc(C)cc2)c2nc3ccccc3nc21` ?
Y

# fetch the recorded call for `CCN(CC)c1ccc(/C=c2\sc3nnc(-c4ccccc4Cl)n3c2=O)cc1` here
N

Status in this test for O=C(Nc1ccc(Br)cc1)c1ccc(N2C(=O)C3CC=CCC3C2=O)cc1 (configuration not stated) ?
Y

What did the test return for `COc1ccc(CCNC(=O)CCC(=O)N2CCOc3ccc(C)cc32)cc1OC` ?
N

Dear colleague, could you share the recorded outcome for COC(=O)C1CC(=O)N(c2ccc(OCc3ccccc3Cl)cc2)C1 (configuration not stated) when you have a moment?
N

What outcome does the record of this test show for `O=C(NCc1ccc(Cl)cc1)c1cc(-c2cccs2)on1` ?
Y

Please indicate how the test categorized COCCn1nnnc1C(c1cc2ccc(OC)cc2[nH]c1=O)N1CCc2ccccc2C1 (configuration not stated) .
Y

Status in this test for `O=C(O)CCN1C(=O)/C(=C/c2cn(-c3ccccc3)nc2-c2cccs2)SC1=S` ?
N

Field: outcome | Entry: `O=C(Nc1ccc(Cl)cc1)OCc1cn(-c2ccccc2)nn1`
N

Hello, I am checking results. What call was entered for `CSc1n[nH]c(NCc2ccc(Cl)cc2)n1` ?
N

Could you please tell me the result logged for `CC1CCN(S(=O)(=O)c2ccc3c(c2)c(=O)c(C(=O)NCc2ccccc2Cl)cn3C)CC1` in this assay?
N

====

ASSAYED TARGET: E3 ubiquitin-protein ligase SIAH1 (Homo sapiens)
ASSAY REMARKS: inhibitors of Siah-1 ligand interaction – biochemical, TR-FRET, dose response (AID 2141)
ASSAY CONDITIONS: TR-FRET biochemical assay, Siah-1 binding
Activity calls are given as the source filed them. No rule for the calls is given here.
MEASURED METRIC: IC50

Here's what some known entries look like.
Request body: readout IC50, system E3 ubiquitin-protein ligase SIAH1 (Homo sapiens), query `COc1cc(CNc2ccc(O)cc2)cc(Br)c1OCc1ccccc1F` . Return the value.
4.66 µM

Param readout= IC50; system= E3 ubiquitin-protein ligase SIAH1 (Homo sapiens); entry= `COC(=O)c1ccc2c(c1)C(C)(C)C(/C=C/c1ccccc1O)=[N+]2C` ; returns value.
> 200 µM (inactive)

What value of IC50 on E3 ubiquitin-protein ligase SIAH1 (Homo sapiens) does `O=C1CCCC(O)=C1N=Nc1ccc(C(=O)O)cc1` have?
< 1.56 µM

Param readout= IC50; system= E3 ubiquitin-protein ligase SIAH1 (Homo sapiens); entry= CCOC(=O)C1(C)C=C(Nc2ccc(O)cc2)C(=O)N1c1ccc(O)cc1 (stereo not drawn) ; returns value.
inactive

Give the reported IC50 for `Cc1cc(C)n2ncc(C(=O)Nc3ccc4c(c3)OCO4)c2n1` (system: E3 ubiquitin-protein ligase SIAH1 (Homo sapiens)).
inactive

Report IC50 for `S=c1[nH]nc(Cc2cccc3ccccc23)n1-c1ccccc1` tested on E3 ubiquitin-protein ligase SIAH1 (Homo sapiens).
> 200 µM (inactive)

# get_value(readout= IC50, system= E3 ubiquitin-protein ligase SIAH1 (Homo sapiens)) for `CCN(CC)c1ccc(C=N/C(C#N)=C(\N)C#N)cc1`
> 200 µM (inactive)

Record `CC(C)COc1ccc(-c2nn(-c3ccccc3)cc2/C=C2/SC(=S)N(CC(=O)O)C2=O)cc1` : what is its IC50 with E3 ubiquitin-protein ligase SIAH1 (Homo sapiens)?
3.91 µM

More entries:
Please state recorded IC50 (tested on E3 ubiquitin-protein ligase SIAH1 (Homo sapiens)) of `Cc1cc(C)c(C#N)c(Nc2ccccc2C)n1`
> 200 µM (inactive)

For E3 ubiquitin-protein ligase SIAH1 (Homo sapiens), provide IC50 of `N#Cc1c(NC(=O)c2ccc(Br)o2)n(-c2ccccc2)c2nc3ccccc3nc12` please.
3.73 µM

Recall the recorded IC50 for `COc1ccc(N=C2NC(=O)S/C2=C\c2ccc(N(C)C)cc2)cc1` with E3 ubiquitin-protein ligase SIAH1 (Homo sapiens) and state it.
> 200 µM (inactive)

Find IC50 (E3 ubiquitin-protein ligase SIAH1 (Homo sapiens)) for the entry CCC(C)[C@H](NC(=O)N1CCn2c1nc1ccccc12)C(=O)NCCc1ccc(OC)c(OC)c1 (stereo partly drawn)
> 200 µM (inactive)

Provide the documented IC50 with E3 ubiquitin-protein ligase SIAH1 (Homo sapiens) as the system for `O=S(=O)(Nc1cc2nc3ccccc3nc2n1Cc1ccccc1)c1ccc(Cl)cc1`
6.05 µM

Return IC50 measured with E3 ubiquitin-protein ligase SIAH1 (Homo sapiens) given this molecule: `Cc1ccc(CNc2ccc(O)cc2)cc1`
4.51 µM

Record `CC(=O)c1ccc(S(=O)(=O)Nc2ccc(-c3ccc4nnc(C)n4n3)cc2)cc1` : what is its IC50 with E3 ubiquitin-protein ligase SIAH1 (Homo sapiens)?
9.93 µM
